Items are presented alongside their recorded cytotoxicity at 10 µM.
Assay: Toxicity liver stage against HepG2, at 10uM
Format: cell-based
Design: test concentration 10 uM, cell line HepG2-A16-CD81EGFP
Conditions: human, HepG2-A16-CD81EGFP cells; read-out: INHIBITION

CN(C)CCN1CC2(CCC1=O)CCN(C(=O)c1ccn(C)n1)CC2 = -11%
Cc1cnc(C)c(N2CCCC(CO)(Cc3cccc(Cl)c3)C2)n1 (stereo unspecified) = 7.78%
COCCN1CCCC(Cc2cnc(-c3c(C)nn(C)c3C)cn2)C1 (stereo unspecified) = -2.56%
CNC(=O)[C@H]1C[C@@H]2CN(C(=O)c3ccncc3)C[C@@H]2N1S(C)(=O)=O = -5.98%
O=C(C1CCCCC1)N1CCC(n2nc(-c3ccco3)ccc2=O)CC1 = -16.6%
CCC(O)CN1CCN(C(=O)c2ccc(Cn3cccc3)cc2)CC1 (stereo unspecified) = -6.54%
CN(C(=O)C1CSCN1S(=O)(=O)c1ccc(F)cc1)C1CC1 (stereo unspecified) = 1.18%
CC(C)N(Cc1cccc(Cl)c1)Cc1nnsc1Cl = 2.56%
CCn1cc(NC(=O)NCC(C)N2CCCC2)cn1 (stereo unspecified) = -9.89%
Cc1cnc(N2CC[C@@H]3O[C@@H](COCc4ccccn4)CC[C@@H]32)nc1 = -88.3%

Q: Fill in cytotoxicity at 10 µM for record c1cnc(NCc2nnn3c2CN(Cc2ccsc2)CCC3)nc1
Ans: 10.8%

###

Experiment: Toxicity liver stage against HepG2, at 10uM
Type: cell-based
Design: test concentration 10 uM, cell line HepG2-A16-CD81EGFP
Conditions: human, HepG2-A16-CD81EGFP cells; read-out: INHIBITION
Quick reference for cytotoxicity at 10 µM among some molecules
Give the value; after it, write the unit.

Q: Using known records, supply cytotoxicity at 10 µM for CC1CCN(C(=O)c2cn(-c3cc(N4CCSCC4)ncn3)cn2)CC1
Ans: -3.75%

Q: Provide cytotoxicity at 10 µM value for the following molecule: Cc1cnn(CC2CCCN2CCCS(C)(=O)=O)c1 (centres undefined)
Ans: -8.18%

Q: Note cytotoxicity at 10 µM for the molecule shown: CC(CNC(=O)c1ccncc1F)Oc1ccc(F)cc1 (centres undefined)
Ans: 0.0383%

Q: Entry N#Cc1cc2c(=O)n(CC(O)Cc3ccccc3)ccc2[nH]c1=O (centres undefined) needs its cytotoxicity at 10 µM filled in; supply it.
Ans: 2.86%

Q: Using known records, supply cytotoxicity at 10 µM for O=C(C1CCOC1)N1C[C@H]2CN(Cc3ccccn3)C[C@H]2C1 (some centres undefined)
Ans: 1.03%

###

Below is a list of entries, each paired with its recorded cytotoxicity at 10 µM value.
Test: Toxicity liver stage against HepG2, at 10uM
Type: cell-based
Set-up: test concentration 10 uM, cell line HepG2-A16-CD81EGFP
Details: human, HepG2-A16-CD81EGFP cells; read-out: INHIBITION
Respond numerically; units are % and should not be typed.

CSc1cccc(CNC(=O)[C@H]2CNC[C@H](C(=O)N3CCOCC3)C2)c1 = -1.74

Q: Give a short answer stating reported cytotoxicity at 10 µM for CC(NC1CCN(CC(=O)N(C)C)CC1)c1cnn(C(C)C)c1 (stereo unspecified) .
Ans: -0.54

Q: Consider the molecule CC(C)(C)OC(=O)N1CCC(C(=O)NCc2cc3ccccc3[nH]2)C1 (stereo unspecified) and give its recorded cytotoxicity at 10 µM.
Ans: 2.34

Q: For the molecule Cc1cc(C2CCCN(CC(=O)N3CCCc4ccccc43)C2)n[nH]1 (stereo unspecified) , give its measured cytotoxicity at 10 µM value.
Ans: -4.14

Q: Return cytotoxicity at 10 µM (reported value) for this molecule: CC(CN1CCOCC1)NCC1CCN(c2cnn(C)c(=O)c2)CC1 (stereo unspecified)
Ans: -9.93

Q: Fill in reported cytotoxicity at 10 µM for this entry: CN(C)S(=O)(=O)CCCN1CCc2c(ncn2C2CC2)C1
Ans: -10.5

Q: Quick one: give measured cytotoxicity at 10 µM for FC(F)(F)Cn1nnnc1SCCN1CCCCC1
Ans: -61.4

Q: Fill in cytotoxicity at 10 µM for record Cc1ccc(-c2nc(CN3CCn4c(nnc4C4CC4)C3)no2)cc1
Ans: -1.99

Q: Quick one: give measured cytotoxicity at 10 µM for CC(C)c1nn(C)c(N2CCOCC2)c1CNC(C)c1ccccn1 (stereo unspecified)
Ans: -6.56

Q: Could you please provide reported cytotoxicity at 10 µM for CC(SCCC(=O)NC(N)=O)c1ccccc1F (stereo unspecified) ? Thanks!
Ans: 5.87

Q: Check the records and state cytotoxicity at 10 µM for CNc1cc(C)nc(N2C[C@H](NC(=O)C3CCOCC3)[C@@H](C3CC3)C2)n1
Ans: 4.41
